# assayed.system: Norepinephrine transporter (Rattus norvegicus)
# Sequence (Q9WTR4 whole entry): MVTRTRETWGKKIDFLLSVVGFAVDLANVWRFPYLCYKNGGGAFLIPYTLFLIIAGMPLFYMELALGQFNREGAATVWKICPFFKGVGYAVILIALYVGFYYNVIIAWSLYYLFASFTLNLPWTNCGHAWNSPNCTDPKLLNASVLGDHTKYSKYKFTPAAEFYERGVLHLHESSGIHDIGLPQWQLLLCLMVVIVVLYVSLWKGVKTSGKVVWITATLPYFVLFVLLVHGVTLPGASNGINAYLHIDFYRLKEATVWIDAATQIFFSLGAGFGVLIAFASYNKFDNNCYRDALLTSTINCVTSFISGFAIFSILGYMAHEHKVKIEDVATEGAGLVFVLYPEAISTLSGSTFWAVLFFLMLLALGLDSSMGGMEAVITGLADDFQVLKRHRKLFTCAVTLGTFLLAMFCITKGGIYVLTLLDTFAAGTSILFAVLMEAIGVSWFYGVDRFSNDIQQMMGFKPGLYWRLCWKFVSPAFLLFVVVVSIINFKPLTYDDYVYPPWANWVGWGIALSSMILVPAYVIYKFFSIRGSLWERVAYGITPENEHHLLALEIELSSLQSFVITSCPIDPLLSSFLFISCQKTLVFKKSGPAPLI
# procedure.details: Compound was tested for the inhibition of norepinephrine [3H]NE reuptake into rat cortical membranes
Catalogue of compounds with associated Ki
Output spec: scalar in nM, unitless text.

{"molecular.string": "N=c1scc(-c2ccc(Cl)cc2)n1-c1ccccc1F", "measured.number": 36}
{"molecular.string": "N=c1scc(-c2ccc(Cl)cc2)n1-c1ccccc1N1CCOCC1", "measured.number": 22100}

Fill blank: measured Ki of the compound Cc1ccc(-c2csc(=N)n2-c2ccc(Cl)cc2)cc1 is ____.
801

Fill blank: measured Ki of the compound Cc1cc(-c2csc(=N)n2-c2ccc(Cl)cc2)ccc1Cl is ____.
99

Fill blank: measured Ki of the compound N=c1scc(-c2ccc(Cl)cc2)n1-c1ccc(Cl)cc1Cl is ____.
141

Fill blank: measured Ki of the compound N=c1scc(-c2ccc(Br)cc2)n1-c1cccc(C(F)(F)F)c1 is ____.
140

Fill blank: measured Ki of the compound N=c1scc(-c2ccc(Cl)cc2)n1-c1cccc(C(F)(F)F)c1 is ____.
26

Fill blank: measured Ki of the compound Cc1cc(-n2c(-c3c(F)cccc3F)csc2=N)ccc1Cl is ____.
86

src = ChEMBL document CHEMBL1135173
